# System Name: IKK2 (IKKβ) (Homo sapiens)
# Construct: made in house; host or cells: baculovirus-infected insect cells (SF9)
# Sequence (O14920 whole entry): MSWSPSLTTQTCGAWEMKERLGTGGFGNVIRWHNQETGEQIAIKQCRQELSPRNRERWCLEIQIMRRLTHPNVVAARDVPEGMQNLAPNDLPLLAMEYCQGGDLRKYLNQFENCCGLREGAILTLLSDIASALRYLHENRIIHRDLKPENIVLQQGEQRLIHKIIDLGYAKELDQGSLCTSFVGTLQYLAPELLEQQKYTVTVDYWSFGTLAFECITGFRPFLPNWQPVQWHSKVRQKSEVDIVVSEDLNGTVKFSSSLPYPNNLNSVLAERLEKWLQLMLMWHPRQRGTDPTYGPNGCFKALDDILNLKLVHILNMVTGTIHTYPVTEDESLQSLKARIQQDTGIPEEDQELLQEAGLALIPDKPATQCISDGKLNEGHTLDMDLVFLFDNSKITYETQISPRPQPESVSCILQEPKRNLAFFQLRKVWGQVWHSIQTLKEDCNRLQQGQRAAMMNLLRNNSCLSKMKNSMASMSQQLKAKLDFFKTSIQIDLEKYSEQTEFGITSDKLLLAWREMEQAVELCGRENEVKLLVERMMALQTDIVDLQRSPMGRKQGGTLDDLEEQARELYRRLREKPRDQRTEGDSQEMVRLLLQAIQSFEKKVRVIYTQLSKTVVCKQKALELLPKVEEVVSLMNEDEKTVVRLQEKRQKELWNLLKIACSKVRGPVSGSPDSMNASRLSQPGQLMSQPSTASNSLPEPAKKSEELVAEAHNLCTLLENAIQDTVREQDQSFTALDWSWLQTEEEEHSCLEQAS
# Assay Procedure: IKK2 (IKKβ) resin enzyme assay
# Assay type: biochemical
# Measurement Context: Table 5; read-out: IKK2 Resin IC50
List of IC50 values.

Answered cases to consult:
C[S+]([O-])c1ccc(-n2nc(C(N)=O)c3c2-c2cc(NC(=O)c4ccccc4Cl)ccc2OC3)cc1 (stereo not drawn) [Example 55] ... ≥ 1 µM
CSc1ccc(-n2nc(C(N)=O)c3c2-c2cc(NC(=O)c4ccccc4Cl)ccc2OC3)cc1 [Example 57] ... ≥ 10 µM

Pending compound:
Return reported IC50; argument: CS(=O)(=O)c1ccc(-n2nc(C(N)=O)c3c2-c2cc(NC(=O)c4ccccc4Cl)ccc2OC3)cc1 [Example 54]
≤ 1 µM
